Test system: XIP peptide (Xip251-270)
Assay: compounds binding XIP fragment 251-270 – biochemical, small-molecule microarray, fluorescence 635/667 nm, 0.5 µg/mL protein, primary screen (AID 1183)
Conditions: fluorescence 635 nm, higher = more signal
property: composite z-score
No unit in the answer, only the number.

Here's what some known entries look like.
C=CCC(OC(C)=O)[C@@H]1[C@@H](N(Cc2ccc(-c3ccccc3)cc2)C(=O)c2cccc3ccccc23)c2cc(OCCCO)ccc2N1C(=O)Cc1ccc(OC)cc1 (stereo partly drawn): -0.686
CCCCCC1=C2CNC(CC(C)C)(C(=O)OC)C=C2C(C)C1=O (stereo not drawn): 0.176
CC(C)C(=C=CC[C@H](O)c1ccccc1OCCO)C[C@H](O)COCc1ccccc1: 0.619

Specify composite z-score for Cc1ccc(C(C)CC(O)C2C=CC3C(=O)N(C)C(=O)C3N2Nc2ccccc2)o1 (stereo not drawn) and stop.
0.383

Look up and state reported composite z-score for CC(C)=CCCC=C(C)C(O)C1C=CC2C(=O)N(c3ccccc3)C(=O)C2N1Nc1ccc(C#N)cc1 (stereo not drawn)
0.621
